system_name: T1, rhMC-4R (rhesus monkey)
T1 chain: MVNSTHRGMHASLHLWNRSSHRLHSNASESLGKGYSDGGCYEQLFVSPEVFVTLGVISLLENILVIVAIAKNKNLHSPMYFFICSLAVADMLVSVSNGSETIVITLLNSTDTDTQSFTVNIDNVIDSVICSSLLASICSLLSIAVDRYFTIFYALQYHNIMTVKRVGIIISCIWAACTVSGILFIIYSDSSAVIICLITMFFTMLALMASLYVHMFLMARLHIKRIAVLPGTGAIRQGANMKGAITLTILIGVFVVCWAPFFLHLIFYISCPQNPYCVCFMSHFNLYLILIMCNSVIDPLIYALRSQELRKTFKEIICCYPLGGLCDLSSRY
method_description: competition
condition_info: modification not given
For each of the binders below, state its IC50.
Answer format: numeric, nM implied, no suffix.

Input line: State, in one line, measured IC50 of SYSMEHFRWGKPV [alpha-MSH, P01189]
Output line: 27

Input line: State, in one line, measured IC50 of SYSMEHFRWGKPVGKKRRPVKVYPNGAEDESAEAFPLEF [ACTH1-39, P01189]
Output line: 1.3
